Experiment: Double-blind pharmacokinetic study of a single 1200 mg IV dose of oritavancin in healthy volunteers
Type: in vivo
Details: human, plasma, Cohort 1: 1200 mg IV, approved formulation (SWFI, no HPBCD), D5W 1000 mL, 3 h infusion, healthy subjects, average
assayReadout: Cmax

- compound: "CN[C@H](CC(C)C)C(=O)N[C@H]1C(=O)N[C@@H](CC(N)=O)C(=O)N[C@H]2C(=O)N[C@H]3C(=O)N[C@H](C(=O)N[C@H](C(=O)O)c4cc(O)cc(O)c4-c4cc3ccc4O)[C@H](O[C@H]3C[C@](C)(N)[C@@H](O)[C@H](C)O3)c3ccc(c(Cl)c3)Oc3cc2cc(c3O[C@@H]2O[C@H](CO)[C@@H](O)[C@H](O)[C@H]2O[C@H]2C[C@](C)(NCc3ccc(-c4ccc(Cl)cc4)cc3)[C@@H](O)[C@H](C)O2)Oc2ccc(cc2Cl)[C@H]1O [Oritavancin]"
  assayReadout: "Cmax"
  obsValue: "183 µg/mL"
